Molecular target: UniProt P08246
Sequence (P08246 30-267): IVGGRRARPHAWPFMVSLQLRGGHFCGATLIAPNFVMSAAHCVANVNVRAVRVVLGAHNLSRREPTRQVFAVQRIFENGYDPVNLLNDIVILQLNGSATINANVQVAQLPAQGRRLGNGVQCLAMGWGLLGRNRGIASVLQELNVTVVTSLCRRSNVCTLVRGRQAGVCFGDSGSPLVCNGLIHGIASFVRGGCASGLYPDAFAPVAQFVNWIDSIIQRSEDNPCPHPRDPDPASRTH
Assay: Inhibition of HLE by desmosine-like peptidyl carbamates, steady state kinetics (Dixon plot, Lineweaver-Burk slope replot)
Format: biochemical
Conditions: Ki values (μM) Dixon, Table 2, variations in P3; Dixon plot, linear regression correlations >0.950
Form field: Ki (one value per entry).
Reply numerically in µM, unit not repeated.

MOLECULE	UNIT_LABEL	Ki
COC(=O)CCC(=O)N[C@@H](C)C(=O)N[C@@H](CCCCNC(=O)OCc1ccccc1)C(=O)N1CCC[C@@H]1C(=O)CN(C(=O)Oc1ccc([N+](=O)[O-])cc1)C(C)C [Compound 48b]	µM	20.4

Let us examine a further case.
Memo: COC(=O)CCC(=O)N[C@@H](C)C(=O)N[C@@H](CCCNC(=O)c1ccccc1)C(=O)N1CCC[C@@H]1C(=O)CN(C(=O)Oc1ccc([N+](=O)[O-])cc1)C(C)C [Compound 51b] , reported Ki: 104

---

Target: PPE (porcine pancreatic elastase) (Sus scrofa, UniProt P00772)
Sequence (P00772 27-266): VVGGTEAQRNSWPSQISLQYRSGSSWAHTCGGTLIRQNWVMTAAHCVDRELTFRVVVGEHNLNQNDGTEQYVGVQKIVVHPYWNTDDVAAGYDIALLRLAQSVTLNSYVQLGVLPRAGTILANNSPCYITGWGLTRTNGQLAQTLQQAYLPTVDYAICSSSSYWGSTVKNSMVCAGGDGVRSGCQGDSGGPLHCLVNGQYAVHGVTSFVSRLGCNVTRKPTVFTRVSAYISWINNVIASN
Assay: Inhibition of PPE by peptidyl carbamates
Type: biochemical
Settings: Ex. 67 table, variations at P3; N.I. = no inhibition at I/E = 100
Quick reference: Ki of the listed items.
Respond with the bare value in µM.

MOLECULE	Ki, µM
COC(=O)CCC(=O)N[C@@H](C)C(=O)N[C@@H](CCCCNC(=O)c1ccccc1)C(=O)N1CCC[C@H]1C(=O)CN(C(=O)Oc1ccc([N+](=O)[O-])cc1)C(C)C [Compound 49a]	3.8

Could you now look at the following molecule, please?
The reported value for COC(=O)CCC(=O)NC(C)C(=O)NC(CCCNC(=O)c1ccccc1)C(=O)N1CCCC1C(=O)CN(C(=O)Oc1ccc([N+](=O)[O-])cc1)C(C)C (centres unmarked) [Compound 51a] in terms of Ki is 14.3

---

Biological target: HLE (human leukocyte elastase) (Homo sapiens)
Experiment: Inhibition of HLE by desmosine-like peptidyl carbamates, steady state kinetics (Dixon plot, Lineweaver-Burk slope replot)
Format: biochemical
Conditions: Table 1, variations in P4; Lineweaver-Burk slope replots, correlations >0.990; read-out: Ki value (μM) Replot
ATTRIBUTE_MEASURED: Ki (µM)
Your answer should be a plain number; it is taken to be in µM.

COMPOUND	Ki [µM]
COC(=O)CCC(=O)NC(CCCNC(=O)OCc1ccccc1)C(=O)NC(C)C(=O)N1CCCC1C(=O)CN(C(=O)Oc1ccc([N+](=O)[O-])cc1)C(C)C (single isomer, unassigned) [Compound 46a]	0.36
COC(=O)CCC(=O)NC(CCCCNC(=O)c1ccccc1)C(=O)NC(C)C(=O)N1CCCC1C(=O)CN(C(=O)Oc1ccc([N+](=O)[O-])cc1)C(C)C (single isomer, unassigned) [Compound 45a]	0.38

Now look at this entry.
Lab book: Ki of COC(=O)CCC(=O)NC(CCCCNC(=O)c1ccccc1)C(=O)NC(C)C(=O)N1CCCC1C(=O)CN(C(=O)Oc1ccc([N+](=O)[O-])cc1)C(C)C (single isomer, unassigned) [Compound 45b] noted as 3.13

Origin of measurements: patent US5008245A
